system: Staphylococcus aureus; assay: Antibacterial activity against methicillin-resistant Staphylococcus aureus ATCC 33591 assessed as reduction in bacterial growth incubated for 18 hrs by agar dilution method; assay type: functional
Square brackets hold non-standard residues; d marks the D form. Peptide text beside a SMILES is read from it. 2Nal = N[C@@H](Cc1ccc2ccccc2c1)C(=O)O; hIle = CC[C@H](C)C[C@H](N)C(=O)O; Cha = N[C@@H](CC1CCCCC1)C(=O)O
log10 MIC values for the molecules below.
MEASURE: log10 MIC (log10 of the value in µM)

| MOLECULE | SYSTEM UNDER TEST | log10 MIC |
| --- | --- | --- |
| CC[C@H](C)[C@H](NC(=O)[C@H](Cc1ccccc1)NC(=O)[C@H](CCCCN)NC(=O)[C@H](CC(C)C)NC(=O)[C@H](CC(C)C)NC(=O)CN)C(=O)N[C@@H](CCCCN)C(=O)N[C@@H](CCCCN)C(=O)N[C@@H](CC(C)C)C(=O)N[C@@H](CC(C)C)C(N)=O (H-GLLKFIKKLL-NH2) | Staphylococcus aureus | 0.98 |
| CC[C@H](C)C[C@H](NC(=O)[C@H](CCCNC(=N)N)NC(=O)[C@H](CCCCN)NC(=O)[C@H](CC(C)C)NC(=O)[C@H](CC(C)C)NC(=O)CN)C(=O)N[C@@H](CCCCN)C(=O)N[C@H](C(=O)N[C@@H](CC(C)C)C(=O)N[C@@H](CC1CCCCC1)C(N)=O)[C@@H](C)O (H-GLLKR[hIle]KTL[Cha]-NH2) | Staphylococcus aureus | 1.45 |
| CC[C@H](C)C[C@H](NC(=O)[C@H](CCCNC(=N)N)NC(=O)[C@H](CCCCN)NC(=O)[C@H](CC(C)C)NC(=O)[C@H](CC(C)C)NC(=O)CN)C(=O)N[C@@H](CCCCN)C(=O)N[C@H](C(=O)N[C@@H](Cc1ccc2ccccc2c1)C(=O)N[C@@H](CC(C)C)C(N)=O)[C@@H](C)O (H-GLLKR[hIle]KT[2Nal]L-NH2) | Staphylococcus aureus | 1.45 |
| CC(C)C[C@H](NC(=O)[C@H](CC(C)C)NC(=O)[C@@H](NC(=O)[C@H](CCCCN)NC(=O)[C@H](Cc1ccc2ccccc2c1)NC(=O)[C@H](CCCNC(=N)N)NC(=O)[C@H](CCCCN)NC(=O)[C@H](CC(C)C)NC(=O)[C@H](CC(C)C)NC(=O)CN)[C@@H](C)O)C(N)=O (H-GLLKR[2Nal]KTLL-NH2) | Staphylococcus aureus | 1.93 |
| CC[C@H](C)C[C@H](NC(=O)[C@H](CCCNC(=N)N)NC(=O)[C@H](CCCCN)NC(=O)[C@H](CC(C)C)NC(=O)[C@H](CC(C)C)NC(=O)CN)C(=O)N[C@@H](CCCCN)C(=O)N[C@H](C(=O)N[C@@H](CC1CCCCC1)C(=O)N[C@@H](CC(C)C)C(N)=O)[C@@H](C)O (H-GLLKR[hIle]KT[Cha]L-NH2) | Staphylococcus aureus | 1.68 |
| CC[C@H](C)C[C@H](NC(=O)[C@H](CCCNC(=N)N)NC(=O)[C@H](CCCCN)NC(=O)[C@H](CC1CCCCC1)NC(=O)[C@H](CC(C)C)NC(=O)CN)C(=O)N[C@@H](CCCCN)C(=O)N[C@H](C(=O)N[C@@H](CC(C)C)C(=O)N[C@@H](CC(C)C)C(N)=O)[C@@H](C)O (H-GL[Cha]KR[hIle]KTLL-NH2) | Staphylococcus aureus | 1.45 |
| CC[C@H](C)[C@H](NC(=O)[C@H](Cc1ccccc1)NC(=O)[C@H](CCCCN)NC(=O)[C@H](CC(C)C)NC(=O)[C@H](CC(C)C)NC(=O)CN)C(=O)N[C@@H](CCCCN)C(=O)N[C@@H](Cc1c[nH]c2ccccc12)C(=O)N[C@@H](CC(C)C)C(=O)N[C@@H](CC(C)C)C(N)=O (H-GLLKFIKWLL-NH2) | Staphylococcus aureus | 0.87 |
